- PROCEDURE TEXT: Serum pharmacokinetics after intraperitoneal injection
- Type: in vivo, Balb/c female mice
- EXPERIMENTAL PARAMETERS: female, Balb/c, mouse, serum, ip, 100 mg/kg, 100 mg/kg intraperitoneal, serum; read-out: Biological half-life (T1/2)
REPORTED METRIC: half-life (min)
# unit: min | format: bare number

Could you please provide reported half-life for CC/C=C\C/C=C\C/C=C\C/C=C\C/C=C\C/C=C\CCC(=O)OC[C@H]1O[C@@H](Oc2cc(O)cc(O)c2C(=O)CCc2ccc(O)cc2)[C@H](O)[C@@H](O)[C@@H]1O [PZ-DHA, phloridzin docosahexaenoate] ? Thanks!
28

----------
- PROCEDURE TEXT: Tissue distribution of PZ-DHA and metabolites after intraperitoneal injection
- Assay type: in vivo, Balb/c female mice
- EXPERIMENTAL PARAMETERS: female, Balb/c, mouse, lungs/serum, intraperitoneal, 100 mg/kg; 30 min; read-out: Tissue/serum ratio of PZ-DHA (Mean ± SD) Lungs/serum
REPORTED METRIC: Kp at 30 min

Could you please provide reported Kp at 30 min for CC/C=C\C/C=C\C/C=C\C/C=C\C/C=C\C/C=C\CCC(=O)OC[C@H]1O[C@@H](Oc2cc(O)cc(O)c2C(=O)CCc2ccc(O)cc2)[C@H](O)[C@@H](O)[C@@H]1O [PZ-DHA, phloridzin docosahexaenoate] ? Thanks!
2.04
